target: pre-existing anti-scFv903 antibodies in human serum H63 (human); experiment: competition ADA bridging ELISA
Assay endpoint: signal change in competition ELISA (% reduction in OD) (%)
Give the value in % but do not write % after it.

Recorded signal change in competition ELISA (% reduction in OD) for scFv 961 (scFv) scFv: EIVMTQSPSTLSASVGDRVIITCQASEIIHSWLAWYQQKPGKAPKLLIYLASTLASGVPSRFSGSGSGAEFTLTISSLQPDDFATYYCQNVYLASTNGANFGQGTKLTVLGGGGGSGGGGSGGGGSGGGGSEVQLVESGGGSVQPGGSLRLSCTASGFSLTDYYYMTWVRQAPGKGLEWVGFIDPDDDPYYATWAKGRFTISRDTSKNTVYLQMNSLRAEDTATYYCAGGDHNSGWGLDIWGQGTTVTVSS , please?
-36
